Field: IC50 (µg/mL), pseudovirus neutralization. Provide a value for each of the binders that follow.
# Tested System: HIV-1 Env of isolate 92UG037 (pseudovirus) (HIV-1)
# Method Notes: cell-based or functional assay
Numbers only, in µg/mL.

>  <Binder>
PGT-123 (4858_P08) (antibody, V domains shown) VH: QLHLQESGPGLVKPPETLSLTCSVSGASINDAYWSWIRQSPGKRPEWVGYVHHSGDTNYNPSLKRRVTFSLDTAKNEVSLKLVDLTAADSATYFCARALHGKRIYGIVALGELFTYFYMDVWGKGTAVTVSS VL: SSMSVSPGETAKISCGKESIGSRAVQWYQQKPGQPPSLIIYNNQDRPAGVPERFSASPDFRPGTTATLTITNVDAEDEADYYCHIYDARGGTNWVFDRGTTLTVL

>  <Measured Endpoint>
IC50 (µg/mL), pseudovirus neutralization

>  <Observed>
0.023

$$$$
>  <Binder>
PGT-126 (5141_B17) (antibody, V domains shown) VH: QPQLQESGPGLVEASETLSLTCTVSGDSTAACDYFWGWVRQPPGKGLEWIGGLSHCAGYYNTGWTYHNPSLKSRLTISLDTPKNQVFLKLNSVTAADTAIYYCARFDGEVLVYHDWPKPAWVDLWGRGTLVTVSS VL: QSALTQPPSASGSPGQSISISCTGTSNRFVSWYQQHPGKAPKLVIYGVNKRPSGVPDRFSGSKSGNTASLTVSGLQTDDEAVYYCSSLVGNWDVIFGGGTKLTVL

>  <Measured Endpoint>
IC50 (µg/mL), pseudovirus neutralization

>  <Observed>
0.011

$$$$

Batch request: IC50 (µg/mL), pseudovirus neutralization for each of the following binders.
1. PGT-127 (5145_B14) (antibody, V domains shown) VH: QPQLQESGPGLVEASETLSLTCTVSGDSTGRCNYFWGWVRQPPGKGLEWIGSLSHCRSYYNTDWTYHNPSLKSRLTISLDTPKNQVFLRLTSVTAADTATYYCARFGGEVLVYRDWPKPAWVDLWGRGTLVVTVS VL: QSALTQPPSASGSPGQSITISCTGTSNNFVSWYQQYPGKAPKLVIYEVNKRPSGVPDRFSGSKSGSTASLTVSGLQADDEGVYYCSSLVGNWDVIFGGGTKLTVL
2. PGT-125 (5123_A06) (antibody, V domains shown) VH: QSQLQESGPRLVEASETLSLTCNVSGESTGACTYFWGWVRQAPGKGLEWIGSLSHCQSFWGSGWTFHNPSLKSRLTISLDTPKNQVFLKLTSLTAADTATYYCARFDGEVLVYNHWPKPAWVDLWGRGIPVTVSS VL: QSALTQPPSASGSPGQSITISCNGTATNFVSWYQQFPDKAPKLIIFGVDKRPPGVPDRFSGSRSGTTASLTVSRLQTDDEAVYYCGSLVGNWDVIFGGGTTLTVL

[0.014, 0.005]

The origin of these recorded values is patent US20250320281A1.
